Where do these numbers come from? They come from patent US9549560B2.

Tested on: Sweetpotato Whitefly-Crawler (Bemisia tabaci)
Experiment: Insecticidal test for Sweetpotato Whitefly-Crawler (WF) (BEMITA) in foliar spray assay on cotton plants
Type: in vivo
Conditions: 216 h, 200 ppm foliar spray, graded after 9 days, Abbott corrected % control, read-out: % Control (or Mortality) rating, WF
What mortality at 200 ppm was measured for each of the following?

Use these answered entries as a reference point.
> print(dat)
                                   compound     recorded.endpoint  value.observed
1  C#CCN(C(=O)CCSCCCC(F)(F)F)c1cn(-c2ccc[n+]([O-])c2)nc1Cl [Compound P71]  mortality at 200 ppm      80 to 100%
2  CCN(C(=O)CC[S+]([O-])CCC(F)(F)F)c1cn(-c2ccc[n+]([O-])c2)nc1C (stereo not shown) [Compound P19]  mortality at 200 ppm      80 to 100%
3  CCN(C(=O)CC[S+]([O-])CC1CC1(F)F)c1cn(-c2ccc[n+]([O-])c2)nc1Cl (stereo not shown) [Compound P49]  mortality at 200 ppm      80 to 100%

**Query** Indicate its recorded mortality at 200 ppm; the compound in question is CN(C(=O)CC[S+]([O-])CCC(F)(F)F)c1cn(-c2ccc[n+]([O-])c2)nc1Cl (stereo not shown) [Compound P2]
**Result** 80 to 100%
